From: patent US20220304307A1

# System: Orlando insecticide-susceptible strain of Ae. aegypti (female mosquitoes)
# Method Summary: Glass tube spatial repellency assay
# Type: in vivo, Aedes aegypti
# Assay Conditions: 10 μg/cm^2; horizontal tube; 0.5=0% repellency, 0=100% repellency
Parameter threshold = 0.5. Response is Satisfied when 15 min repellency ratio meets or exceeds it, else Not satisfied.

query: Has O=Cc1cccc(-c2ccccc2)c1 a recorded 15 min repellency ratio greater than or equal to 0.5?
result: Not satisfied

query: Then O=Cc1cccc(C=O)c1 ?
result: Not satisfied

query: Then O=Cc1cccc(O)c1 [3-hydroxybenzaldehyde] ?
result: Satisfied

query: Then CC(C)(C)c1cccc(C=O)c1 ?
result: Not satisfied

query: Then O=Cc1cccc(Cl)c1 ?
result: Not satisfied

---

# Test system: insecticide-susceptible Aedes aegypti (Orlando strain) females
# Method Summary: Glass tube vapor toxicity assay (24 hr mortality)
# Assay Conditions: 100 μg/cm^2; horizontal tube
Measured Attribute: 24 hr mort (%)
Express your answer as a number followed by its unit.

>>> reported_measurement("O=Cc1cccc(C(=O)O)c1")
"9.4%"
>>> reported_measurement("C=Cc1cccc(C=O)c1")
"6.3%"
>>> reported_measurement("CC(C)(C)c1cccc(C=O)c1")
"81.3%"
>>> reported_measurement("O=Cc1cccc(-c2ccccc2)c1")
"6.3%"
>>> reported_measurement("O=Cc1cccc(C=O)c1")
"87.5%"

query: Looking for the measured 24 hr mort (%) of O=Cc1cccc(O)c1 [3-hydroxybenzaldehyde] , can you help?
result: 15.6%

query: Then O=Cc1cccc(Cl)c1 ?
result: 100.0%

---

# Tested on: Orlando insecticide-susceptible strain of Ae. aegypti (female mosquitoes)
# Method Summary: Glass tube spatial repellency assay
# Format: in vivo, Aedes aegypti
# Assay Conditions: 100 μg/cm^2; horizontal tube; 0.5=0% repellency, 0=100% repellency
# Method: The following assay was conducted according to the procedures of Jiang et al., 2019 (Jiang S., Yang L, and Bloomquist J (2019) High-throughput screening method for evaluating spatial repellency and vapor toxicity to mosquitoes. Med. Vet. Entomol.). […] Tubes were then aligned with a mark denoting the midline and the proportion of mosquitoes on the chemically treated side was scored at 15, 30, and 60 min. […]
Quick rule for you: 30 min repellency ratio under 0.3 gets class 1, anything else gets class 0.

Worked examples, 5 compounds total:
>>> category_label("O=Cc1cccc(O)c1 [3-hydroxybenzaldehyde]")
"class 0"
>>> category_label("O=Cc1cccc(C=O)c1")
"class 1"
>>> category_label("Cc1cccc(C(N)=O)c1 [m-toluamide]")
"class 0"
>>> category_label("C=Cc1cccc(C=O)c1")
"class 1"
>>> category_label("O=Cc1cccc(-c2ccccc2)c1")
"class 0"

Turning now to a further compound:
query: Say whether its 30 min repellency ratio is strictly beneath 0.3. Entry: O=Cc1cccc(C(=O)O)c1
result: class 0

---

Quick reference: repellency EC50 (+TFA) of the listed items.
# Tested on: Orlando insecticide-susceptible strain of Ae. aegypti (female mosquitoes)
# Method Summary: Glass tube spatial repellency assay
# Format: in vivo, Aedes aegypti
# Assay Conditions: applied as mixture with TFA (50 μg/cm^2); 1 hr
Please give a number only; it is taken to be in μg/cm^2.

>>> reported_measurement("O=Cc1ccccc1 [benzaldehyde, reference compound]")
15
>>> reported_measurement("CCN(CC)C(=O)c1cccc(C)c1 [DEET, N,N-diethyl-m-toluamide, reference compound]")
26
>>> reported_measurement("CCCCCCCCCC(C)=O [2-undecanone]")
5.1
>>> reported_measurement("CC1(C)[C@H](C=C(Cl)Cl)[C@H]1C(=O)OCc1c(F)c(F)cc(F)c1F [Transfluthrin, reference compound]")
0.11
>>> reported_measurement("CC(C)=C[C@@H]1[C@@H](C(=O)O)C1(C)C (relative stereo) [TCA, 1-R-trans-chrysanthemic acid]")
1.3
>>> reported_measurement("CC/C=C\\C[C@H]1C(=O)CC[C@@H]1CC(=O)OC [methyl jasmonate]")
6
>>> reported_measurement("CC1(C)[C@H](C=C(Cl)Cl)[C@H]1C(=O)OC1CC1 [GMR 126]")
0.35
>>> reported_measurement("CCc1ccc(NC(=O)CSc2nnc(-c3cccnc3)n2CC)cc1 [VUAA-1, reference compound]")
30

query: Enter reported repellency EC50 (+TFA) observed with Orlando insecticide-susceptible strain of Ae. aegypti (female mosquitoes) for OCc1c(F)c(F)cc(F)c1F [TF-OH, transfluthrin alcohol]
result: 41

query: Then CC1(C)C(C=C(Cl)Cl)C1C(=O)OCc1cccc(Oc2ccccc2)c1 (stereo not shown) [permethrin, reference compound] ?
result: 9.5
